I'd be grateful if you could share measured IC50 for these entries.
- Subject Of Test: QR2 (Homo sapiens)
- Sequence (P16083 1-231): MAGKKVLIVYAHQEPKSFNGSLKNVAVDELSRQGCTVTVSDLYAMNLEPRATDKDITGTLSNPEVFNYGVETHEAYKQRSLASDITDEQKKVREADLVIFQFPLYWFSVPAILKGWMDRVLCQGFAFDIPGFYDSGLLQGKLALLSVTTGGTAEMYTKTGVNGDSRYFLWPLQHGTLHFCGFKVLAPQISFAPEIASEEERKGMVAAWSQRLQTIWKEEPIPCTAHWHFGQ
- Protocol Notes: QR2 enzymatic activity assay (menadione/BNAH), absorbance readout at 350 nm
- Assay type: biochemical
- Parameters: purchased Sigma-Aldrich
Express it in µM; write the number only.

Item under review: Cc1nc(-c2ccc(C)c(S(=O)(=O)N3CCC(C)CC3)c2)cs1 [PCM-0197104] . Reported IC50?
4.58

# IC50 lookup, item CCN(CC)S(=O)(=O)c1cc(-c2nnc(-c3ccccc3)o2)ccc1C [PCM-0127546]
3.12

Any idea what its IC50 is? The molecule is Cc1ccc(-c2cn3cccc(C)c3n2)cc1S(=O)(=O)N1CCCCCC1 [PCM-0214338]
0.03

Quick one: IC50 of Cc1cc(-c2ccc(C)c(S(=O)(=O)N(C)C)c2)n[nH]1 [PCM-0213802] ?
0.16

Query (molecule): Cc1cc(-c2ccc(C)c(S(=O)(=O)Nc3ccc(Cl)cc3)c2)[nH]n1 [PCM-0186036] ; field requested: IC50
1.16

Item Cc1nc(-c2ccc(C)c(S(=O)(=O)N3CCN(C(=O)c4ccco4)CC3)c2)cs1 [PCM-0197066] has what recorded IC50?
1.28

Which IC50 is listed for CS(=O)(=O)N(Cc1cccnc1)C1CN(C(=O)c2c[nH]c3ccccc23)C1 [PCM-0105406] ?
8.43

All values here come from patent US20240228481A1.
